# Target Entity: T1, human CD20 (human, UniProt P11836 1-297)
# T1 sequence (looked up): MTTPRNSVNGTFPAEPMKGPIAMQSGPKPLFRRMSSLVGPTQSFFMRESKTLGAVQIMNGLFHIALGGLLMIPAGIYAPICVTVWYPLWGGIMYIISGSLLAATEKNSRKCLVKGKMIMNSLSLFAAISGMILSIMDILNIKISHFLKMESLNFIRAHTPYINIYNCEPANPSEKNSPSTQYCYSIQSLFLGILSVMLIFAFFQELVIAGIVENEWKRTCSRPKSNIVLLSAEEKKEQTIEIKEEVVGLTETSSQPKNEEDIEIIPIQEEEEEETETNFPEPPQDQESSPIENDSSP
# Assay Remarks: cell-based or functional assay
Assay Metric: EC50 µg/ml Ramos Apoptosis Annexin V
Please answer in the form of a number followed by its unit of measurement.

Inquiry: Name the recorded EC50 µg/ml Ramos Apoptosis Annexin V for mAb 1.12.3 (antibody, human IgG1, V domains shown) VH: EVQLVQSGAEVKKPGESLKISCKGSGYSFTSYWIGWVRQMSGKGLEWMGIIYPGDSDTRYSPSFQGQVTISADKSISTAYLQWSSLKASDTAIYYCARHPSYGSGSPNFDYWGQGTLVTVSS VL: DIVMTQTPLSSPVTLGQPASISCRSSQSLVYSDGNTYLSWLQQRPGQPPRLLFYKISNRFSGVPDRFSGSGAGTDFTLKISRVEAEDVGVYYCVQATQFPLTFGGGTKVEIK .
Reply text: 0.191 µg/mL

Hello, the source for this data is patent US20070014720A1, in case you need it.
